experiment: Compound concentration that cause 50% cytotoxicity was determined by neutral red uptake in 2.2.15 Cells; format: cell-based, HepG2 2.2.15; conditions: human
CC50 strictly under 800 µM means Criterion met; at 800 µM or over means Criterion not met.

O=c1n([C@H]2CO[C@H](CO)O2)cc(F)c2nc(CO)cn12 :: Criterion not met
O=c1n(C2CSC(CO)O2)ccc2nc(CO)cn12 (configuration not stated) :: Criterion met
O=c1n(C2COC(CO)O2)ccc2nc(-c3ccc(F)cc3)cn12 (configuration not stated) :: Criterion not met
O=c1n([C@H]2CO[C@H](CO)O2)ccc2nc(-c3ccc([N+](=O)[O-])cc3)cn12 :: Criterion met
O=c1n([C@H]2CO[C@@H](CO)O2)ccc2nc(-c3ccc([N+](=O)[O-])cc3)cn12 :: Criterion met

Request: Just wondering, is CC50 of O=c1n([C@H]2CO[C@H](CO)O2)cc(F)c2nc(-c3ccc([N+](=O)[O-])cc3)cn12 below 800 µM?
Response: Criterion met

Request: Also, O=c1n([C@H]2CO[C@@H](CO)O2)cc(F)c2nc(-c3ccc([N+](=O)[O-])cc3)cn12 please.
Response: Criterion not met

Request: Field entry: O=c1n([C@H]2CO[C@@H](CO)O2)cc(F)c2nc(CO)cn12
Response: Criterion not met

Request: Can you check Nc1ccn([C@H]2CC[C@@H](CO)O2)c(=O)n1 next?
Response: Criterion met

Request: Next compound: O=c1n(C2COC(CO)O2)ccc2nc(CO)cn12 (configuration not stated)
Response: Criterion met

----------
system: HepG2; experiment: Compound concentration required to inhibit 90% of intracellular replicating HBV (Hepatitis B virus) RI in human hepatoma cell line 2.2.15; assay type: functional
The molecules listed here are annotated with their EC90.
The figure you give is taken to be in µM; do not add the unit.

Request: For the molecule shown here, O=c1n([C@H]2CO[C@@H](CO)O2)cc(F)c2nc(CO)cn12 , give the reported EC90.
Response: 66.6

Request: // repeat for Nc1ccn([C@H]2CC[C@@H](CO)O2)c(=O)n1 [ZALCITABINE] and report
Response: 10

Request: Now the same for O=c1n([C@H]2CO[C@@H](CO)O2)cc(F)c2nc(-c3ccc([N+](=O)[O-])cc3)cn12
Response: 13.6

Request: Please give the result for O=c1n([C@H]2CO[C@H](CO)O2)cc(F)c2nc(-c3ccc([N+](=O)[O-])cc3)cn12 too.
Response: 25

----------
EC50 values by entry
test system: HepG2; test: Compound concentration required to inhibit 50% of intracellular replicating HBV (Hepatitis B virus) RI in human hepatoma cell line 2.2.15; type: functional, cell-based
# number then unit; no other words

See these solved cases before continuing.
O=c1n([C@H]2CO[C@@H](CO)O2)cc(F)c2nc(-c3ccc([N+](=O)[O-])cc3)cn12 :: 7.7 µM
O=c1n([C@H]2CO[C@H](CO)O2)cc(F)c2nc(-c3ccc([N+](=O)[O-])cc3)cn12 :: 12.8 µM
Nc1ccn([C@H]2CC[C@@H](CO)O2)c(=O)n1 :: 3.2 µM

Note: attention shifts to another entry.
Request: Field request: EC50 | item: O=c1n([C@H]2CO[C@@H](CO)O2)cc(F)c2nc(CO)cn12
Response: 29.1 µM
